Values were extracted from ChEMBL document CHEMBL4706759.

Assign EC50 to each entry below.
target: SMN2 pre-mRNA; experiment: Modulation of SMN2 mRNA splicing in spinal muscular atrophy patient fibroblasts measured after 24 hrs by TaqMan qPCR analysis; format: tissue-based, Homo sapiens; conditions: fibroblast
Only the number, expressed in µM, is required.

Challenge: Tell us which EC50 value is on record for CN(c1cnc(-c2ccc(-c3cn[nH]c3)cc2O)cn1)[C@H]1C[C@@H]2CCC[C@@H](N2)[C@H]1F
Response given: 0.016

Challenge: Tell us which EC50 value is on record for CN(c1cnc(-c2ccc(-c3ccn(C)c(=O)c3)cc2O)cn1)[C@@H]1C[C@H]2CCC[C@H](N2)[C@@H]1F
Response given: 0.051

Challenge: Tell us which EC50 value is on record for CN(c1cnc(-c2ccc(-c3cn[nH]c3)cc2O)cn1)[C@H]1C[C@]2(C)CCC[C@@](C)(N2)[C@H]1F
Response given: 0.016

Challenge: Tell us which EC50 value is on record for CN(c1cnc(-c2cc(F)c(-c3cn[nH]c3)cc2O)cn1)[C@H]1C[C@@H]2CC[C@@H](N2)[C@H]1F
Response given: 0.016

Challenge: Tell us which EC50 value is on record for CN(c1cnc(-c2ccc(-c3cn[nH]c3)cc2O)cn1)[C@H]1C[C@@H]2CC[C@@H](N2)[C@H]1F
Response given: 0.016

Challenge: Tell us which EC50 value is on record for CN(c1cnc(-c2ccc(-c3cn[nH]c3)cc2O)cn1)[C@H]1C[C@@H]2CC[C@@](C)(N2)[C@H]1F
Response given: 0.016
